Task for the reader: assign each of the following binders its reported SPOT peptide array binding signal intensity.
target: ScLsb1; assay: SPOT peptide array binding signal intensity (averaged, normalized) (arbitrary units (background-subtracted, floor 0; scale differs between SH3 domains)); higher = stronger binding of the SH3 domain to the peptide
Numbers only.

The cases that follow already have their SPOT peptide array binding signal intensity on record.
1) ISNFVPPNLPMRRFK	393
2) RRSKSLPTTPGIRSG	77
3) FYNRTAFQLPGDARV	554

Attention now shifts to the item below.
Give its SPOT peptide array binding signal intensity value. Item: `AERNYAPRLPRRETS`
184
